B1: Proto-oncogene vav, residues 782 to 842; numbered along this chain, P15498 (parent)
chain: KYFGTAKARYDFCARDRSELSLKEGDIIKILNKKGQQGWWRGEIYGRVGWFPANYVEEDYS

variants of: B1; test: abundance fitness (aPCA) (normalised: wild type 0, dead -1); higher = more abundant; growth selection in yeast, the domain comes from the species named; settings: Homo sapiens
Parameter threshold = -0.3. Response is Met when abundance fitness meets or exceeds it, else Not met.

| mutation.list | label.class |
| --- | --- |
| K23N | Not met |
| E24Y | Met |
| R15Y | Not met |
| Y55P | Not met |
| D26R | Not met |
| Y45W | Met |
| K7G | Not met |
| A8L | Not met |
| D26Q | Met |
| K23P | Not met |
| K23T | Met |
| Q36Y | Met |
| E57I | Met |
| S21E | Met |
| Q37V | Met |
| L31V | Met |
| Y2H | Met |
| S61K | Met |
| C13R | Met |
| Q36N | Met |
| G49A | Not met |
| P52A | Not met |
| E19S | Not met |
| I30N | Not met |
| S18H | Met |
| K1Q | Met |
| F12S | Not met |
| E19F | Not met |
| Y45H | Met |
| F51R | Not met |
| Y55H | Met |
| Y2S | Met |
| C13Q | Met |
| Q37L | Met |
| F51S | Not met |
| K23F | Not met |
| D11K | Not met |
| G25P | Not met |
| Q37N | Met |
| C13K | Met |
| I30Y | Not met |
| A53E | Met |
| S18Y | Met |
| K33H | Not met |
| A14V | Not met |
| L31W | Met |
| L20A | Not met |
| F12I | Not met |
| L22K | Not met |
| Y60Q | Met |
| L20W | Not met |
| G38V | Not met |
| K33N | Not met |
| D59A | Met |
| G46I | Not met |
| W39A | Not met |
| D11I | Not met |
| W40M | Not met |
| A6S | Not met |
| G4A | Met |
| G38R | Not met |
| D26G | Not met |
| K7E | Not met |
| P52R | Not met |
| R9Y | Not met |
| W50Q | Not met |
| G49N | Not met |
| R17Y | Met |
| W39G | Not met |
| W39E | Not met |
| I28R | Not met |
| E24S | Met |
| F3K | Met |
| R47V | Not met |
| A6E | Not met |
| E19K | Not met |
| L22N | Not met |
| K1E | Met |
| R17N | Met |
| K29N | Met |
| D26M | Not met |
| R15F | Not met |
| W39I | Not met |
| K29E | Not met |
| Y10I | Met |
| G38E | Not met |
| R47N | Met |
| N32T | Met |
| S21D | Met |
| C13M | Met |
